Test system: rodent lifetime carcinogenesis bioassay, tumor incidence TD50
assay explanation: carcinogenic potency in animals, long-term in vivo studies, CPDB compilation (AID 1745844)
cond: rat; strain Wistar albino; females; i.p.; site: kidney; lesion: epithelial neoplasm; dosed 26 weeks; study length 52 weeks
measured attribute: TD50

INSERT INTO assay_data (structure_string, result) VALUES
  ('CN(N=O)C(=O)NCCC[C@H](N)C(=O)O', '0.633 mg/kg/day');

###

Test system: rodent lifetime carcinogenesis bioassay, tumor incidence TD50
assay explanation: carcinogenic potency in animals, long-term in vivo studies, CPDB compilation (AID 1745844)
cond: rat; strain Alpk:APfSD; females; by gavage; site: uterus; lesion: adenocarcinoma; dosed 52 weeks; study length 125 weeks
measured attribute: TD50

INSERT INTO measurements (structure_string, result) VALUES
  ('FC(F)(F)CCl', '160 mg/kg/day');
